Test system: mouse α2B receptor (Mus musculus)
Sequence (P30545 whole entry): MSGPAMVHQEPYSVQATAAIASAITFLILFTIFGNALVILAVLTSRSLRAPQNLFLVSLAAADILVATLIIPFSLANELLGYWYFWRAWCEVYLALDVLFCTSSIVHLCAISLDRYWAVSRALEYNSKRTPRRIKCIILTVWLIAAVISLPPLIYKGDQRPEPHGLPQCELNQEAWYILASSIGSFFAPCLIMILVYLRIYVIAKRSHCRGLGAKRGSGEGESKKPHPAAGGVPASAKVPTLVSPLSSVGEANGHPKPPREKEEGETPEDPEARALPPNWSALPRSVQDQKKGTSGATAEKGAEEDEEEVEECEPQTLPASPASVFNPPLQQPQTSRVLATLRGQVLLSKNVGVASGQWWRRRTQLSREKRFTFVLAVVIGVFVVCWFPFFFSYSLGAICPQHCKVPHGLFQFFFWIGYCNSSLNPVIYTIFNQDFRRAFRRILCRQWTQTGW
Run description: FLIPR Ca+2 influx assay, α2B
Measurement conditions: HEK 293 cells stably expressing mouse α2B receptor and Gα16 protein
Assay readout: EC50 (nM)

Please review the following examples before continuing.
[[record]]
molecule = "CCCN(Cc1ccccn1)C1CCc2cccc(O)c2C1 (stereo not shown) [drawing 20]"
assay_readout = "EC50"
units = "nM"
experimental_result = 568

[[record]]
molecule = "CCN(Cc1ccncc1)C1CCc2cccc(OC)c2C1 (stereo not shown)"
assay_readout = "EC50"
units = "nM"
experimental_result = 78

[[record]]
molecule = "CCN(Cc1cccnc1)C1CCc2cccc(O)c2C1 (stereo not shown)"
assay_readout = "EC50"
units = "nM"
experimental_result = 873

[[record]]
molecule = "CCCN(Cc1ccccn1)C1CCc2cccc(OC)c2C1 (stereo not shown)"
assay_readout = "EC50"
units = "nM"
experimental_result = 363

[[record]]
molecule = "CCN(Cc1ccncc1)C1CCc2cccc(O)c2C1 (stereo not shown)"
assay_readout = "EC50"
units = "nM"
experimental_result = 185


I = CCCN(Cc1ccncc1)[C@@H]1CCc2cccc(O)c2C1
II = CCCN(Cc1ccccn1)C1CCc2cccc(O)c2C1 (stereo not shown) [drawing 21]
Task item: I'm curious, which of these has a smaller EC50 number: I or II ? Your answer should be the label attached to the chosen record.
Reply: I

P = CCCN(Cc1ccncc1)C1CCc2cccc(OC)c2C1 (stereo not shown)
Q = CCCN(Cc1ccncc1)C1CCc2cccc(O)c2C1 (stereo not shown)
Task item: Quick check, higher EC50 between P and Q ? Your answer should be the label attached to the chosen record.
Reply: Q

* * *

Test system: human α2A receptor (Homo sapiens)
Sequence (P08913 whole entry): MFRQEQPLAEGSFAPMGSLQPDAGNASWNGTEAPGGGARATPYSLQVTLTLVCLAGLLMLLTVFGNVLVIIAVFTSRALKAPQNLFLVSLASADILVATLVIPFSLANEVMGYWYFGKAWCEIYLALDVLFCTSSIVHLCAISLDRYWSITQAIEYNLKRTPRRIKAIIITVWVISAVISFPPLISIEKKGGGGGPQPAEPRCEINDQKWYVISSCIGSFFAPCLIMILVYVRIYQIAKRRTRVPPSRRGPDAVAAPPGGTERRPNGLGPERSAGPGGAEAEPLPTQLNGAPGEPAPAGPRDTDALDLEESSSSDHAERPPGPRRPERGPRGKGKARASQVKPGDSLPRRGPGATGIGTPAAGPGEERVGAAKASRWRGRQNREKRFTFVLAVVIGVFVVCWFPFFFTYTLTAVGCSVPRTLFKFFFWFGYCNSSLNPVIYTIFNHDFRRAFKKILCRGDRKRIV
Run description: FLIPR Ca+2 influx assay, α2A
Measurement conditions: HEK 293 cells stably expressing human α2A receptor and chimeric G protein Gqi5
Text: The compounds disclosed herein are agonists of alpha 2B/2C adrenergic receptors. […] This assay is adequate for monitoring the intracellular Ca^2+ mobilization from fluorescent reading to evaluate receptor agonists. […]
pEC50: −log10 of the molar value.
Assay readout: pEC50

A = CCN(Cc1cccnc1)C1CCc2cccc(OC)c2C1 (stereo not shown)
B = CCN(Cc1ccncc1)C1CCc2cccc(O)c2C1 (stereo not shown)
C = CCCN(Cc1ccncc1)C1CCc2cccc(OC)c2C1 (stereo not shown)
D = CCN(Cc1ccncc1)C1CCc2cccc(OC)c2C1 (stereo not shown)
Task item: Reorder the records above by pEC50 so that values decrease. A ranking is expressed here by listing the labels in the requested order.
Reply: D, A, C, B

* * *

Test system: bovine α1A receptor (Bos taurus)
Construct: expressed in transfected cells; host or cells: HEK 293
Sequence (P18130 whole entry): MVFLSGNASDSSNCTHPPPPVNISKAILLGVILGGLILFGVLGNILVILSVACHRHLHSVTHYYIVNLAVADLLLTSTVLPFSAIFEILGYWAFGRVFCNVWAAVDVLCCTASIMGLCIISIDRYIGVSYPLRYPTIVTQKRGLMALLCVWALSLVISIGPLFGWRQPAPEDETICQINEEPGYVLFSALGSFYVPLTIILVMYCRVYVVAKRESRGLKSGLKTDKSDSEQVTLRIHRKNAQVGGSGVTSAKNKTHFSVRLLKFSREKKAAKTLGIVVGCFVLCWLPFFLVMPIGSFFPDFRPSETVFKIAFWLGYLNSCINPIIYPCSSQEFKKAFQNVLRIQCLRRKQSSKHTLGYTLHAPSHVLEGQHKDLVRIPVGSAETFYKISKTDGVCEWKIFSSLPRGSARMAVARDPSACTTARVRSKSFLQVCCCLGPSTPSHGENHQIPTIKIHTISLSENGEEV
Run description: FLIPR Ca+2 influx assay, α1A
Assay type: cell-based
Measurement conditions: relative efficacy compared to standard full agonist norepinephrine; HEK 293, bovine α1A
Assay readout: Relative efficacy FLIPR α1A

[[record]]
compound = "CCCN(Cc1cccnc1)C1CCc2cccc(OC)c2C1 (stereo not shown)"
experimental_result = 0

[[record]]
compound = "CCN(Cc1cccnc1)C1CCc2cccc(OC)c2C1 (stereo not shown)"
experimental_result = 0

[[record]]
compound = "CCCN(Cc1ccccn1)C1CCc2cccc(O)c2C1 (stereo not shown) [drawing 20]"
experimental_result = 0

[[record]]
compound = "CCN(Cc1cccnc1)C1CCc2cccc(O)c2C1 (stereo not shown)"
experimental_result = 0.29

[[record]]
compound = "CCCN(Cc1ccncc1)C1CCc2cccc(OC)c2C1 (stereo not shown)"
experimental_result = 0

